Molecular target: T1, RBP SH3-III (ITC construct) (D. melanogaster)
T1 chain: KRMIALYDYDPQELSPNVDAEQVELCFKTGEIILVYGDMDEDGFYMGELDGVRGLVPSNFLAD
Assay: ITC
measuredQuantity: Kd (µM)
Write the number in µM without appending the unit.

Observe how each entry below is paired with its result.
INSERT INTO assay_data (binder, measuredquantity, readoutunit, datavalue) VALUES
  ('Ac-GRQLPQVPVRSG-NH2 (PxxP peptide named RIM1; May be a mammalian RIM1 motif or one of two motifs of Drosophila RIM; source: synthetic peptide (Leibniz Institute for Molecular Pharmacology)) [RIM1 peptide (GRQLPQVPVRSG)]', 'Kd', 'µM', 8.4),
  ('Ac-GRQLPQLPPKGT-NH2 (PxxP peptide named RIM2; May be a mammalian RIM2 motif or one of two motifs of Drosophila RIM; source: synthetic peptide (Leibniz Institute for Molecular Pharmacology)) [RIM2 peptide (GRQLPQLPPKGT)]', 'Kd', 'µM', 12.5),
  ('Ac-TRRRRKLPEIPKNKK-NH2 (Aplip1, D. melanogaster, residues 149-163 with the first PxxP motif; also called Aplip1 peptide; Aplip1-PxxP1 peptide; source: synthetic peptide (Leibniz Institute for Molecular Pharmacology)) [Aplip-PxxP1 peptide (149-TRRRRKLPEIPKNKK-163)]', 'Kd', 'µM', 1.4);

Inquiry: So what's the measured Kd for this one? Ac-IGRRLPPTPSKPSTL-NH2 (also called Cacophony peptide; Cac-derived peptide; source: synthetic peptide (Leibniz Institute for Molecular Pharmacology)) [Cac peptide (1685-IGRRLPPTPSKPSTL-1699)]
Reply text: 17.3

Data credit: paper PMC4536467
